tested on: Tov-21-G; assay: Primary qHTS to identify gynecologic anti-cancer compounds using libraries of approved drugs and bioactive compounds (AID 1345084); conditions: Gynecologic cancer cell panel viability, ATPlite luminescence, 48 h; series mostly up to 57.5 µM; further: nearly all actives have a fitted effect of over 55% in size
Records with an inconclusive call do not appear. The source made the active and inactive calls. The call rests on the fitted dose curve; in most records, active means well fitted cell-killing curve with a large enough effect; inconclusive means small, poorly fitted or top-dose-only effect, or effect the other way; inactive means flat fitted curve, though single readings scatter.
Pick one and only one: yes = active, no = inactive

// param item: Cc1c(F)ccc(C(=O)Nc2cc([N+](=O)[O-])ccc2N2CCN(C)CC2)c1Cl ; yields the recorded call
no

// param item: COc1ccc2cc3c(NC(=O)c4ccco4)nn(C)c3nc2c1 ; yields the recorded call
no

// param item: CC(=O)OC1CC2(C)C(CCC(C)C23Cc2c(O)cc(CO)c(C=O)c2O3)C(C)(C)C1O (centres undefined) ; yields the recorded call
no

// param item: Cc1c(C2=CCN(C(=O)N(C)C(C)C)CC2)nnn1-c1cccnc1F ; yields the recorded call
no

// param item: Fc1ccc(-c2cncc(CN3CCN(c4cccc5c4OCCO5)CC3)c2)cc1 ; yields the recorded call
no

// param item: OC[C@H]1O[C@@H](OC/C=C/c2ccc(O)cc2)[C@H](O)[C@@H](O)[C@@H]1O ; yields the recorded call
no

// param item: CC(=O)OC1C(OC(=O)c2ccccc2)C2C(C)(C)CCC(OC(C)=O)C2(C)C23CCC(C)(C2)C(=O)CC13 (centres undefined) ; yields the recorded call
no

// param item: COc1cc(/C=C2\CC[C@H]3COC[C@@H](c4cc(F)c(F)c(F)c4)N3C2=O)ccc1-n1cnc(C)c1 ; yields the recorded call
no

// param item: CC1=C(C(=O)OC2CCCCC2)C(c2ccc([N+](=O)[O-])cc2)C2=C(CC(C)(C)CC2=O)N1 (centres undefined) ; yields the recorded call
no

// param item: COc1ccc2c(c1O[C@H]1CCNC1)CCC2 ; yields the recorded call
no

// param item: CN(C)CCOC(C)(c1ccccc1)c1ccc(Cl)cc1 (centres undefined) ; yields the recorded call
no

// param item: CC(C)(C)[C@H](NC(=O)c1ccc(N)c(Cl)c1)C(=O)N1CCC[C@H]1C(=O)N[C@H](C#N)CC(=O)O ; yields the recorded call
no

// param item: Cc1nc(-c2cn3c(n2)-c2ccc(-c4cnn(C(C)(C)C(N)=O)c4)cc2OCC3)n(C(C)C)n1 ; yields the recorded call
yes

---

Assay: Primary fluorescence-based thiol-reactive (MSTI) qHTS assay for identification of artifact compounds. (AID 1845221); further: nearly all actives have a fitted effect of over 65% in size
Settings: MSTI thiol-reactivity probe, 1 h; series mostly up to 53.8 µM
Source text: PI: Alexander Tropsha Ph.D. UNC Eshelman School of Pharmacy University of North Carolina, Chapel Hill, North Carolina Hits from high-throughput screening (HTS) of chemical libraries are often false positives due to their interference with the assay detection technology. […] Using these curated datasets, we developed and validated several Quantitative Structure-Interference Relationship (QSIR) models to predict nuisance behavior. […]
Inconclusive results are not listed. Calls of active or inactive are those of the source. Calls follow the shape of the dose curve; as a rule, active = well fitted inhibition curve with a large enough effect; inconclusive = small, poorly fitted or top-dose-only effect; inactive = no such curve, though single readings can be large or run the other way.
Pick one and only one: yes (1) (active), no (0) (inactive)

Some solved cases for reference:
# smilesEntry, labelValue
measured = [
    ("O=S1(=O)CCN(Cc2cc(NCC3CCOCC3)c3[nH]c(-c4ccccc4)cc3c2)CC1", "yes (1)"),
    ("COc1ccccc1C(=O)Nc1cccc(NC(=O)c2cccc(C)c2)c1", "no (0)"),
    ("O=C(Nc1ccc(C(F)(F)F)cn1)N1CCN(c2ncccc2C(F)(F)F)CC1", "no (0)"),
    ("C[C@@]12C(=O)N(c3ccc(C(=O)Nc4cccc5cccnc45)cc3)C(=O)[C@@H]1[C@@H]1C=C[C@H]2C1", "no (0)"),
    ("CC(C)c1ccc(NC(=O)Cn2cnc3c2c(=O)n(C)c(=O)n3C)cc1", "no (0)"),
    ("CCCOc1ccc(S(=O)(=O)N2CCN(CCO)CC2)cc1-c1nc2c(CCC)cn(CC)c2c(=O)[nH]1", "no (0)"),
]

// param item: CN(C)C(=O)NC1(c2ccccc2)CCN(CCC[C@]2(c3ccc(Cl)c(Cl)c3)CCCN(C(=O)c3ccccc3)C2)CC1 ; yields the recorded call
no (0)

// param item: COc1ccc(C(=O)Nc2c(Cl)cncc2Cl)cc1OC1CCCC1 ; yields the recorded call
no (0)

// param item: CC(C)(O)c1ccn2c(-c3ccc(F)c(-c4ccc(F)cc4C#N)c3)cnc2c1F ; yields the recorded call
no (0)

From: PubChem BioAssay (NCATS)
